Target: T1, cynomolgus monkey CD8A on primary cynomolgus monkey CD8+ T cells (cynomolgus monkey, UniProt P01732 23-235 (human entry))
T1 construct: also called Cyno CD8alpha
T1 sequence (P01732 other isoform, or with tags, fused parts or gaps limits assumed): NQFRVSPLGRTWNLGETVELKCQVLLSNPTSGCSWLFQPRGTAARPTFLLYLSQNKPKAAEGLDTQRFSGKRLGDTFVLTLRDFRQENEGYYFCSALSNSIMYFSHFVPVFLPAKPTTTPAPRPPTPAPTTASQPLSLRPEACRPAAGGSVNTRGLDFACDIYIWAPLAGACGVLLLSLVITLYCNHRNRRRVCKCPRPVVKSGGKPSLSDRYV
Experiment: flow cytometry, cyno CD8+ T cells, 2 uM FN3
Readout: Cyno T-cell Binding 2 uM (MFI)

Binder: P282DR9P1359_A12 (designed binder, FN3 domain) LPAPKNLVVSRVTEDSARLSWTAPEAAFDSFQIAYPEWPPPREAIVLTVPGSERSYDLTGLKPGTEYFVVIQGVKGGEISWPLSAIFTT
Cyno T-cell Binding 2 uM (MFI): 88000
--
Binder: P282DR9P1359_B2 (designed binder, FN3 domain) LPAPKNLVVSRVTEDSARLSWTAPDAAFDSFWIAYTEWPIPYEEAGQEGEAIVLTVPGSERSYDLTGLKPGTEYWVSIYGVKGGPNSQPLSAIFTT
Cyno T-cell Binding 2 uM (MFI): 60900

(1) P282DR9P1359_E5 (designed binder, FN3 domain) LPAPKNLVVSRVTEDSARLSWTAPDAAFDSFAISYPEWPVPGEAIVLTVPGSERSYDLTGLKPGTEYFVIIYGVKGGLYSAPLSAIFTT
(2) P282FR9P1361_H4 (designed binder, FN3 domain) LPAPKNLVVSRVTEDSARLSWTAPDAAFDSFGIWYAEYGYSGEAIVLTVPGSERSYDLTGLKPGTEYDVAIYGVKGGSPSYPLSAIFTT
Pick one, 1 or 2 : lowest reported Cyno T-cell Binding 2 uM (MFI). Selection: enter the item's label.
2
(2: 26300 MFI, 1: 81200 MFI)
